Value source: PubChem BioAssay (NCI)

System: HCT-116 colon
Experiment: NCI-60 one-dose screen, 48 h (100 = growth as untreated, 0 = no growth, -100 = all killed)
Details: 10 µM unless noted
Protocol: Growth inhibition of the HCT-116 human tumor cell line is measured as a screen for anti-cancer activity. Cells are grown in 96 well plates and exposed to the test compound for 48 hours. Compounds are tested at a single concentration, which is 10^-5 M for most compounds. The reported endpoint is percent growth (GI% or GIPRCNT), where numbers from 0 - 100% represent growth inhibition, and numbers from -100% - 0 represent cell death. For example, a value of 40 represents 60% growth inhibition. […]
About 83,000 compounds went through this panel and 20% of them were active in at least one assay; those are over-represented in the sample as a whole.
PROPERTY_MEASURED: growth (%)

>  <MOLECULAR_STRING>
Cc1ccc(-c2cc3nc(C(Cl)Cl)nc(-c4ccccc4)n3n2)cc1

>  <PROPERTY_MEASURED>
growth

>  <UNIT_ABBREV>
%

>  <VALUE_OBSERVED>
82.2

$$$$
>  <MOLECULAR_STRING>
CCc1ccc(NC(=O)N[C@@H](Cc2cccc(F)c2)C(=O)N[C@@H]2C(=O)N3CCC[C@H]3C(=O)N3CCCC[C@H]3C(=O)N[C@@H](C)C(=O)N3C[C@H](C)C[C@H]3C(=O)O[C@H]2C)c(F)c1

>  <PROPERTY_MEASURED>
growth

>  <UNIT_ABBREV>
%

>  <VALUE_OBSERVED>
3.62

$$$$
>  <MOLECULAR_STRING>
O=C(NCCCNc1cc(-c2cn(-c3ccccc3)nc2-c2cccc(O)c2)ccn1)Nc1ccc(F)cc1

>  <PROPERTY_MEASURED>
growth

>  <UNIT_ABBREV>
%

>  <VALUE_OBSERVED>
10.4

$$$$
>  <MOLECULAR_STRING>
COc1cc(-c2noc(C[C@@H](NC(=O)OCc3ccccc3)C(C)C)n2)cc(OC)c1OC

>  <PROPERTY_MEASURED>
growth

>  <UNIT_ABBREV>
%

>  <VALUE_OBSERVED>
101

$$$$
>  <MOLECULAR_STRING>
CCOC(=O)c1c(NC(=O)c2cccc(C(F)(F)F)c2)sc2c(CN3CCN(C)CC3)c(O)ccc12

>  <PROPERTY_MEASURED>
growth

>  <UNIT_ABBREV>
%

>  <VALUE_OBSERVED>
-82.6

$$$$
>  <MOLECULAR_STRING>
CC[C@]12C=CCN3CC[C@]4(C(=C(C(=O)OC)C1)Nc1cc5c(cc14)[C@@H]1[C@H](O5)[C@@H](O)[C@@]4(CC)CC(C(=O)OC)=C5Nc6cc(OC)ccc6[C@@]56CCN1[C@@H]46)[C@@H]32

>  <PROPERTY_MEASURED>
growth

>  <UNIT_ABBREV>
%

>  <VALUE_OBSERVED>
-87.2

$$$$
>  <MOLECULAR_STRING>
C/C(=N/Nc1nc(N/N=C(/C)c2ccc([N+](=O)[O-])cc2)nc(N2CCOCC2)n1)c1ccc([N+](=O)[O-])cc1

>  <PROPERTY_MEASURED>
growth

>  <UNIT_ABBREV>
%

>  <VALUE_OBSERVED>
70.6

$$$$
